test: Visual cytotoxicity in uninfected HFF's used in plaque reduction assays; assay type: cell-based; settings: human
Entries and their measured CC50 follow.

[[record]]
compound = "Nc1nc2c(ncn2/C=C2/C[C@H]2[C@H](O)CO)c(=O)[nH]1 [ent-14b]"
resulttype = "CC50"
reportedvalue = "> 300 µM"


Req: Param item = Nc1ncnc2c1ncn2/C=C1/C[C@@H]1[C@@H](O)CO [Compound 14a] ; retrieve measured CC50.
Resp: > 100 µM

Req: Form field: reported CC50 of Nc1ncnc2c1ncn2/C=C1/C[C@H]1[C@H](O)CO [ent-14a]
Resp: > 100 µM

Req: Given Nc1ncnc2c1ncn2/C=C1\C[C@@H]1[C@@H](O)CO [Compound 15a] , state its recorded CC50.
Resp: > 100 µM

* * *

experiment: in vitro; assay type: cell-based; settings: human
resultType: CC50 (µM)
Express the result in µM but write the number alone.

Req: Query (compound): Nc1nc2c(ncn2/C=C2/C[C@H]2[C@@H](O)CO)c(=O)[nH]1 [ent-12b] ; field requested: CC50
Resp: 284
